Overview of reported DC50 across a group of molecules:
- target: BRD9 (Homo sapiens, UniProt Q9H8M2)
- Sequence (Q9H8M2 1-597): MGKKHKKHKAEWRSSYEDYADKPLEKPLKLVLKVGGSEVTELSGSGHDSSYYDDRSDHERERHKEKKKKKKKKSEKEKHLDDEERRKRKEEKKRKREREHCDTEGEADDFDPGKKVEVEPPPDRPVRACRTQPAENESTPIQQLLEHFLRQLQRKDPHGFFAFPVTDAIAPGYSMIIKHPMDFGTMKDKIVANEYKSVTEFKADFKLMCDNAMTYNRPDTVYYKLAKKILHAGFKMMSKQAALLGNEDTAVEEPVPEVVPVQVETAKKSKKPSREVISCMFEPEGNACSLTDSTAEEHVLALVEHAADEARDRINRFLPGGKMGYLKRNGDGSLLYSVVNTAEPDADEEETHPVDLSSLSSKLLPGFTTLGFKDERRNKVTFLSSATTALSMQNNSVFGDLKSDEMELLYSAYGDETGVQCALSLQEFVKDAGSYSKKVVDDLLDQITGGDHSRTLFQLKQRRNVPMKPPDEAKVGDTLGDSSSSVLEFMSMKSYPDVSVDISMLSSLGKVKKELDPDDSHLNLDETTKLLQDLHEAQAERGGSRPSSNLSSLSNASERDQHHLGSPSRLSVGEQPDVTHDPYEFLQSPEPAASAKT
- assay-remarks: Degradation of BRD9 (IF), immunofluorescence in MV4-11 cells, 24 hours (Assay Protocol 2)
- Format: cell-based
- Design: A suspension of MV4-11 cells (ATCC CRL-9591) was prepared; host or cells: MV4-11
- experimental-parameters: Table 4; BRD9 degradation, determined according to Assay Protocol 2; read-out: DC50^2

The cases that follow already have their DC50 on record.
Entry COc1cc(-c2cn(C)c(=O)c(C)c2C)cc(OC)c1CN1CCN(C(=O)C2CCCN(C(=O)/C(C#N)=C/c3nccs3)C2)CC1 (centres unmarked) , DC50 reported as 25 to 200 nM

Entry COc1cc(-c2cn(C)c(=O)c(C)c2C)cc(OC)c1CN1CC2CC1CN2C(=O)/C(C#N)=C/C(C)(C)C (mixture of isomers) — recorded DC50 = < 25 nM

Summary for this molecule, COc1cc(-c2cn(C)c(=O)c(C)c2C)cc(OC)c1CN1CCN(C(=O)C2CC(C(C)C)CN(C(=O)/C(C#N)=C/C(C)(C)C)C2)CC1 (centres unmarked) : DC50 is 25 to 200 nM

// DC50 lookup, molecule = "COc1cc(-c2cn(C)c(=O)c3ccsc23)cc(OC)c1CN1CCN(C(=O)/C(C#N)=C/C(C)(C)C)CC1" , result: < 25 nM

Memo: COc1ccc(C2CC(C(=O)N3CCN(Cc4c(OC)cc(-c5cn(C)c(=O)c(C)c5C)cc4OC)CC3)CN(C(=O)/C(C#N)=C/C(C)(C)C)C2)cc1 (centres unmarked) , reported DC50: < 25 nM

Next:
So, COc1cc(-c2cn(C)c(=O)c(C)c2C)cc(OC)c1CN1CCN(C(=O)C2CCCN(C(=O)/C(C#N)=C/C(C)(C)C)C2)CC1 (centres unmarked) ? Its DC50 was 25 to 200 nM

Record summary for "COc1cc(-c2cn(C)c(=O)c(C)c2C)cc(OC)c1CN1CCN(C(=O)[C@H]2CN(C(=O)/C(C#N)=C/C(C)(C)C)C[C@@H]2C)CC1" : reported DC50 = > 200 nM

Reported DC50 for "COc1cc(-c2cn(C)c(=O)c(C)c2C)cc(OC)c1CN1CCN(C(=O)[C@@H]2CN(C(=O)/C(C#N)=C/c3ccc(F)cc3)C[C@H]2C2CCCCC2)CC1" was > 200 nM

Please fill in: DC50 reported for "COc1cc(-c2cn(C)c(=O)c(C)c2C)cc(OC)c1CN(C)C1CCN(C(=O)/C(C#N)=C/C(C)(C)C)CC1" = > 200 nM

Recorded result, COc1cc(-c2cn(C)c(=O)c(C)c2C)cc(OC)c1CN1CC2CCC(C1)N2C(=O)/C(C#N)=C/c1nccs1 (mixture of isomers) , DC50: < 25 nM

DC50 measured on "COc1cc(-c2cn(C)c(=O)c(C)c2C)cc(OC)c1CN1CCC2(CC1)CCN(C(=O)/C(C#N)=C/c1cccc(Br)n1)CC2" = > 200 nM

Field DC50 (entry "COc1cc(-c2cn(C)c(=O)c(C)c2C)cc(OC)c1CN(C)C(=O)/C(C#N)=C/c1cccc(Br)n1" ) reads < 25 nM

# DC50 of COc1cccc(/C=C(\C#N)C(=O)N2CC3CC2CN3Cc2c(OC)cc(-c3cn(C)c(=O)c(C)c3C)cc2OC)n1 (mixture of isomers) = < 25 nM

DC50 in this record for "COc1cc(-c2cn(C)c(=O)c(C)c2C)cc(OC)c1CN(C)C1CCN(C(=O)/C(C#N)=C/c2cccc(Br)n2)CC1" : > 200 nM

Each recorded value in this set is attributed to patent US20260092061A1.
